Test: NCI Yeast Anticancer Drug Screen. Data for the mec2-1 strain (AID 157)
Conditions: S. cerevisiae mec2-1 strain, at 5.0 µM (retest, dose inferred, filed as 0.5), hits give high values
This is part of a sample that, as a whole, favours compounds with a hit. Of some 79,000 tested, about 15% had one in any assay.
experimental endpoint: growth inhibition (%)
Give your result in % as a bare value.

Reference set, count: 5
# compound, growth inhibition (%)
data = [
    ("O=C(CNS(=O)(=O)Cc1ccccc1)NCC(=O)NNc1ccccc1", 1),
    ("c1ccc(C2=NOC3(c4ccccc4)SC4CCCCC4CN23)cc1 (configuration not stated)", -22),
    ("O=[N+]([O-])C12CCCCC1([N+](=O)[O-])CCCC2 (configuration not stated)", -5),
    ("CCC/C(=N\\O)S(=O)(=O)c1ccc(NN=O)nc1", -20),
    ("O=C(C(=O)c1ccc(Cc2ccc(C(=O)C(=O)c3ccccc3)cc2)cc1)c1ccccc1", 0),
]

Consider now this further compound.
So what's the measured growth inhibition for this one? CCC(=O)C(CC)(c1ccc(OC(C)=O)cc1)c1ccc(OC(C)=O)cc1
24
